System: human red blood cells (hRBC)
ASSAY_NOTES: Hemolysis of red blood cells
Type: cell-based
CONDITION_DESCRIPTION: Table 4; concentration required to lyse 50% of red blood cells
I'd be grateful if you could share measured RBC HC50 for these entries.
The reply should contain only the number, in µM.

Data request: Which RBC HC50 reading was recorded for the compound CCCCCCCCCCCCCCCCn1c(C)[n+](Cc2ccccc2)c2ccccc21.[Br-] ?
Data returned: 10.4

Data request: Same again, this time with CCCCCCCCCCCCCCCCn1cc[n+](Cc2cccc(F)c2)c1C.[Br-]
Data returned: 16.7

Data request: Try CCCCCCCCCCCCCCCCn1cc[n+](Cc2ccccc2C[n+]2ccn(CCCCCCCCCCCCCCCC)c2C)c1C.[Br-].[Br-] next.
Data returned: 34.5

Data request: Repeat for the following compound: CCCCCCCCCCCCCCCCn1cc[n+](C)c1C.[I-]
Data returned: 13.0
